Taken from the supplement of paper PMC10127200.

# Euclidean distance values compiled below
- Test system: 786-O
- Test: Euclidean distance of Cell Painting phenotypic profile (signed KS, 77 features) to DMSO centroid (dimensionless distance); 5 or 10 uM (library dependent); higher = stronger phenotypic change vs DMSO (phenoactivity)
- Study Conditions: 48 h

>  <Compound>
CC(C)C(=O)OCC(=O)[C@@]12O[C@H](C3CCCCC3)O[C@@H]1C[C@H]1[C@@H]3CCC4=CC(=O)C=C[C@]4(C)[C@H]3[C@@H](O)C[C@@]12C [Ciclesonide]

>  <Euclidean distance>
1.71

$$$$
>  <Compound>
CN1CCN(c2c(F)cc3c(=O)c(C(=O)O)cn4c3c2OCN4C)CC1

>  <Euclidean distance>
0.878

$$$$
>  <Compound>
C/C=C(/C(=C/C)c1ccc(O)cc1)c1ccc(O)cc1

>  <Euclidean distance>
0.782

$$$$
>  <Compound>
Nc1nc(CC(=O)Nc2ccc(CCNC[C@H](O)c3ccccc3)cc2)cs1

>  <Euclidean distance>
0.989

$$$$

====

- Test system: A549
- Test: Euclidean distance of Cell Painting phenotypic profile (signed KS, 77 features) to DMSO centroid (dimensionless distance); 5 or 10 uM (library dependent); higher = stronger phenotypic change vs DMSO (phenoactivity)
- Study Conditions: 48 h
Counter-ions that a name gives are not always drawn.
Test Readout: Euclidean distance

>  <Compound>
CO/N=C(\C(=O)N[C@@H]1C(=O)N2C(C(=O)O)=C(CSc3nc(C)c(CC(=O)O)s3)CS[C@H]12)c1csc(N)n1 [Cefodizime Sodium]

>  <Test Readout>
Euclidean distance

>  <Reading>
1.08

$$$$
>  <Compound>
CN1CCN(c2cccc(Nc3nc4c(-c5ccc(S(C)(=O)=O)cc5)cccn4n3)c2)CC1

>  <Test Readout>
Euclidean distance

>  <Reading>
1.14

$$$$
>  <Compound>
CC(C)n1nc(-c2cc3cc(O)ccc3[nH]2)c2c(N)ncnc21

>  <Test Readout>
Euclidean distance

>  <Reading>
3.23

$$$$
>  <Compound>
NCC[C@H](O)C(=O)N[C@@H]1C[C@H](N)[C@@H](O[C@H]2O[C@H](CN)[C@@H](O)[C@H](O)[C@H]2O)[C@H](O)[C@H]1O[C@H]1O[C@H](CO)[C@@H](O)[C@H](N)[C@H]1O [Amikacin disulfate]

>  <Test Readout>
Euclidean distance

>  <Reading>
0.597

$$$$
>  <Compound>
COc1c(-c2ccc3cc(NS(C)(=O)=O)ccc3c2)cc(-n2ccc(=O)[nH]c2=O)cc1C(C)(C)C

>  <Test Readout>
Euclidean distance

>  <Reading>
1.78

$$$$
>  <Compound>
C#C[C@]1(O)CC[C@H]2[C@@H]3CCC4=CCCC[C@@H]4[C@H]3C(=C)C[C@@]21CC

>  <Test Readout>
Euclidean distance

>  <Reading>
0.431

$$$$
>  <Compound>
C#Cc1cccc(Nc2ncnc3cc(OC)c(OCCCCCCC(=O)NO)cc23)c1

>  <Test Readout>
Euclidean distance

>  <Reading>
4.62

$$$$
>  <Compound>
CCOC(=O)[C@H](CCc1ccccc1)N[C@@H](C)C(=O)N1Cc2cc(OC)c(OC)cc2C[C@H]1C(=O)O [Moexipril HCl]

>  <Test Readout>
Euclidean distance

>  <Reading>
1.49

$$$$
>  <Compound>
COc1ccc(CN2C3CC2CN(c2ccc(-c4cc(OCC(C)(C)O)cn5ncc(C#N)c45)cn2)C3)cn1

>  <Test Readout>
Euclidean distance

>  <Reading>
2.72

$$$$
>  <Compound>
CC1=C(C(=O)O)N2C(=O)[C@@H](NC(=O)[C@H](N)c3ccccc3)[C@H]2SC1

>  <Test Readout>
Euclidean distance

>  <Reading>
1.01

$$$$
>  <Compound>
CC(C(=O)O)c1ccc(CC2CCCC2=O)cc1 (stereo not given)

>  <Test Readout>
Euclidean distance

>  <Reading>
0.954

$$$$
>  <Compound>
C=CC(=O)N1CCC(Oc2cc3c(Nc4ccc(Cl)c(Cl)c4F)ncnc3cc2OC)CC1 [Poziotinib (HM781-36B)]

>  <Test Readout>
Euclidean distance

>  <Reading>
3.02

$$$$
>  <Compound>
CC(C)C[C@H](NC(=O)[C@H](CCc1ccccc1)NC(=O)CN1CCOCC1)C(=O)N[C@@H](Cc1ccccc1)C(=O)N[C@@H](CC(C)C)C(=O)[C@@]1(C)CO1

>  <Test Readout>
Euclidean distance

>  <Reading>
4.54

$$$$
>  <Compound>
COc1ccc2c(Oc3ccc(NC(=O)c4c(C)n(CC(C)(C)O)n(-c5ccccc5)c4=O)nc3)ccnc2c1

>  <Test Readout>
Euclidean distance

>  <Reading>
1.01

$$$$
>  <Compound>
O=c1c(O)c(-c2ccc(O)c(O)c2)oc2cc(O)ccc12

>  <Test Readout>
Euclidean distance

>  <Reading>
0.833

$$$$
